Assay: Bioavailability of compound after oral administration at 1 mL/kg concentration in wistar rat
Type: ADME, organism-based
Conditions: in vivo, read-out: BAV
reported-endpoint: bioavailability (%)
Write it as a number; the unit % goes unstated.

Ask: So what does the record say about bioavailability for `Cc1nccn1-c1sc(Nc2cnccn2)nc1-c1cccc(C#N)c1` ?
Reply: 30.2

---

Test: Time to reach Cmax after oral administration at 1 mL/kg concentration in wistar rat
Assay type: ADME, organism-based
Conditions: in vivo
reported-endpoint: Tmax (min)
Write it as a number; the unit min goes unstated.

Ask: So what does the record say about Tmax for `Cc1nccn1-c1sc(Nc2cnccn2)nc1-c1cccc(C#N)c1` ?
Reply: 39.3

---

Target: Adenosine receptor A2b (Homo sapiens) (UniProt P29275)
Sequence (P29275 whole entry): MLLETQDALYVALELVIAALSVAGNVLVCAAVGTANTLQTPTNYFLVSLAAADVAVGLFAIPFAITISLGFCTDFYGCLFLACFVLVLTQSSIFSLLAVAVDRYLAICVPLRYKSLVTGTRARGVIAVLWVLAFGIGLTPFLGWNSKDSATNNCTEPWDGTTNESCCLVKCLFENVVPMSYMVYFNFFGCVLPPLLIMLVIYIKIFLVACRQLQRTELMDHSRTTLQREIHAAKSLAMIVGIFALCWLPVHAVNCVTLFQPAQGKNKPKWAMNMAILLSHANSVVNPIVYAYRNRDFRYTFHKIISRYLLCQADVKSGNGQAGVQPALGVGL
Assay: Inhibition of luciferase production elicited by NECA by compound in CHO cells transfected with human adenosine A2b receptor and a luciferase expressing reporter plasmid in a reporter gene assay
Format: cell-based
Response key: rule met means Kb >= 20 nM; rule not met means Kb < 20 nM.

Study these solved cases before continuing.
| smiles-representation | assay-system | class-name |
| --- | --- | --- |
| N#Cc1cccc(-c2nc(Nc3cnccn3)sc2-n2ccnc2)c1 | Adenosine receptor A2b (Homo sapiens) (UniProt P29275) | rule not met |
| N#Cc1cccc(-c2nc(Nc3cccnc3)sc2-n2ccnc2)c1 | Adenosine receptor A2b (Homo sapiens) (UniProt P29275) | rule met |
| N#Cc1cccc(-c2nc(Nc3cnccn3)sc2-n2cncn2)c1 | Adenosine receptor A2b (Homo sapiens) (UniProt P29275) | rule not met |
| Cc1cccc(Nc2nc(-c3cccc(C#N)c3)c(-n3ccnc3)s2)n1 | Adenosine receptor A2b (Homo sapiens) (UniProt P29275) | rule met |
| N#Cc1cccc(-c2nc(Nc3ccccn3)sc2-n2cncn2)c1 | Adenosine receptor A2b (Homo sapiens) (UniProt P29275) | rule met |
| N#Cc1cccc(-c2nc(Nc3cccnc3)sc2-n2cncn2)c1 | Adenosine receptor A2b (Homo sapiens) (UniProt P29275) | rule met |
| CC(=O)Nc1nc(-c2cccc(C#N)c2)c(-n2cncn2)s1 | Adenosine receptor A2b (Homo sapiens) (UniProt P29275) | rule met |
| Cc1nccn1-c1sc(Nc2cnccn2)nc1-c1cccc(C#N)c1 | Adenosine receptor A2b (Homo sapiens) (UniProt P29275) | rule not met |
| Cc1cccc(Nc2nc(-c3cccc(C#N)c3)c(-n3ccnc3C)s2)n1 | Adenosine receptor A2b (Homo sapiens) (UniProt P29275) | rule not met |

Ask: Item `N#Cc1cccc(-c2nc(Nc3ccncc3)sc2-n2cncn2)c1` with Kb of 20 nM or above?
Reply: rule met

---

Assay: Half life of trhe compound after oral administration at 1 mL/kg concentration in wistar rat
Type: ADME, organism-based
Details: in vivo
reported-endpoint: half-life (h)
Write it as a number; the unit h goes unstated.

Ask: So what does the record say about half-life for `Cc1nccn1-c1sc(Nc2cnccn2)nc1-c1cccc(C#N)c1` ?
Reply: 3.18

---

Experiment: Half life in wistar rat was determined by intra venous administration of 2:1 PEG200/0.1 M phosphate buffer at 0.1 mL/kg concentration
Assay type: ADME
Conditions: in vivo, iv
reported-endpoint: half-life (min)
Write it as a number; the unit min goes unstated.

Ask: So what does the record say about half-life for `Cc1nccn1-c1sc(Nc2cnccn2)nc1-c1cccc(C#N)c1` ?
Reply: 29
